- experimental_system: mouse melanocortin 1 receptor (mouse, UniProt Q01727 1-315)
- Sequence (Q01727 whole entry): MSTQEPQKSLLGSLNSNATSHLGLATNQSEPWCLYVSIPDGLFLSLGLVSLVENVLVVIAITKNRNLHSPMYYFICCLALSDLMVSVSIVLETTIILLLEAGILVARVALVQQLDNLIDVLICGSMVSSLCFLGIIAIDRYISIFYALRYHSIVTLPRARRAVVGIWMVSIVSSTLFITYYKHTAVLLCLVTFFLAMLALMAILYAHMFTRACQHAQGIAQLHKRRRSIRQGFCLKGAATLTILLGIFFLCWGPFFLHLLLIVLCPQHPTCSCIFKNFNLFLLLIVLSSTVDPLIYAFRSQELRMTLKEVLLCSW
- procedure_text: cell-based or functional assay
Square brackets hold non-standard residues; d marks the D form. Nphe = O=C(O)CNCc1ccccc1; Sar = CNCC(=O)O
Reported EC50 (cAMP agonist) values are given for each entry in this list.

binder: cyclo(PRFFN[Sar]F[dP]) (SMILES CN1CC(=O)N[C@@H](Cc2ccccc2)C(=O)N2CCC[C@@H]2C(=O)N2CCC[C@H]2C(=O)N[C@@H](CCCNC(=N)N)C(=O)N[C@@H](Cc2ccccc2)C(=O)N[C@@H](Cc2ccccc2)C(=O)N[C@@H](CC(N)=O)C1=O) [MDE7-26-4c]
prefix_operator: =
EC50 (cAMP agonist) [µM]: 1
--
binder: PRFFXAFP (head-to-tail cyclic; NArg (N-(3-guanidino-propyl)-glycine) at 2; Dap at 5; DPro at 8) [MDE8-108-3c]
prefix_operator: >
EC50 (cAMP agonist) [µM]: 100
--
binder: PRFFXAFP (head-to-tail cyclic; Dap at 5; NAla (N-methylglycine) at 6; DPro at 8) [MDE8-108-6c]
prefix_operator: >
EC50 (cAMP agonist) [µM]: 100
--
binder: cyclo(PR[Nphe]FNAF[dP]) [MDE9-77c]
prefix_operator: =
EC50 (cAMP agonist) [µM]: 0.24
--
binder: PRFFXAFP (head-to-tail cyclic; Dap at 5; NPhe (N-benzylglycine) at 7; DPro at 8) [MDE8-108-7c]
prefix_operator: >
EC50 (cAMP agonist) [µM]: 100
